Data origin: ChEMBL document CHEMBL3792274

experiment: Cytotoxicity against human Hep3B cells after 48 hrs by MTT assay; assay type: cell-based, Hep 3B2
Kindly state IC50 for each of the entries shown.

Illustrative cases are given below, each with its answer.
smiles_record: CC1(C)CC[C@]2(CO)C(=O)C[C@]3(C)C(=C2C1)C=C[C@@H]1[C@@]2(C)CC[C@H](O)[C@@](C)(CO)[C@@H]2CC[C@]13C
IC50: > 80 µM

smiles_record: CC1(C)CC[C@@]2(CO)C(=C3C=C[C@@H]4[C@@]5(C)CC[C@H](O)[C@@](C)(CO)[C@@H]5CC[C@@]4(C)[C@]3(C)C[C@@H]2O)C1
IC50: > 80 µM

smiles_record: C[C@H]1O[C@@H](O[C@H]2CC[C@@]3(C)[C@@H](CC[C@]4(C)[C@@H]3[C@H](O)C=C3[C@@H]5CC(C)(C)CC[C@]5(CO)[C@@H](O)C[C@]34C)[C@]2(C)CO)[C@H](O)[C@@H](O)[C@H]1O
IC50: 39.6 µM

smiles_record: CC(=O)O[C@H]1[C@H](O[C@H]2[C@@H](O)[C@@H](C)O[C@@H](O[C@H]3CC[C@@]4(C)[C@@H](CC[C@]5(C)[C@@H]4C=CC4=C6CC(C)(C)CC[C@]6(CO)[C@H](O)C[C@]45C)[C@]3(C)CO)[C@@H]2O)O[C@H](CO)[C@@H](O)[C@@H]1O
IC50: 23 µM

Query CC1(C)CC[C@@]2(CO)C(=C3C=C[C@@H]4[C@@]5(C)CC[C@H](O)[C@@](C)(CO)[C@@H]5CC[C@@]4(C)[C@]3(C)C[C@H]2O)C1 yields IC50 of > 80 µM

* * *

system: SH-SY5Y; assay: Neuroprotective activity against H2O2-induced neuronal cell death in human SH-SY5Y cells assessed as cell viability at 50 uM pretreated for 12 hrs followed by H2O2 addition measured after 3 hrs by MTT assay relative to control; format: functional; settings: read-out: Activity
Field: label. Allowed values: true (1) (viability at 50 µM < 70%) or false (0) (viability at 50 µM >= 70%).

molecule: CC1(C)CC[C@]23CO[C@@]4(C=C[C@@H]5[C@@]6(C)CC[C@H](O)[C@@](C)(CO)[C@@H]6CC[C@@]5(C)[C@]4(C)C[C@H]2O)[C@@H]3C1
tested_target: SH-SY5Y
answer_label: true (1)

molecule: CC1(C)CC[C@]2(CO)C(=O)C[C@]3(C)C(=C2C1)C=C[C@@H]1[C@@]2(C)CC[C@H](O)[C@@](C)(CO)[C@@H]2CC[C@]13C
tested_target: SH-SY5Y
answer_label: false (0)

I'd appreciate it if you could check whether CC(=O)OC[C@H]1O[C@@H](O[C@H]2[C@@H](O)[C@@H](C)O[C@@H](O[C@H]3CC[C@@]4(C)[C@@H](CC[C@]5(C)[C@@H]4C=CC4=C6CC(C)(C)CC[C@]6(CO)[C@H](O)C[C@]45C)[C@]3(C)CO)[C@@H]2O)[C@H](O)[C@@H](O)[C@@H]1O has viability at 50 µM smaller than 70%.
true (1)

I'd appreciate it if you could check whether Cc1c(C)c2c(c(C)c1O)CCC(C)(C(=O)O)O2 (stereo not given) has viability at 50 µM smaller than 70%.
false (0)

* * *

assay: Cytotoxicity against human Hep3B cells after 48 hrs by MTT assay; type: cell-based, Hep 3B2
Kindly state IC50 for each of the entries shown.

compound: CO[C@@H]1C=C2[C@@H]3CC(C)(C)CC[C@]3(CO)[C@@H](O)C[C@@]2(C)[C@]2(C)CC[C@H]3[C@](C)(CO)[C@@H](O[C@@H]4O[C@H](C)[C@H](O)[C@H](O[C@@H]5O[C@H](CO)[C@@H](O)[C@H](O)[C@H]5O)[C@H]4O)CC[C@]3(C)[C@@H]12
quantity_measured: IC50
result: > 80 µM

compound: O=c1[nH]cc(F)c(=O)[nH]1 [FLUOROURACIL]
quantity_measured: IC50
result: 10.5 µM

compound: C[C@H]1O[C@@H](O[C@H]2CC[C@@]3(C)[C@@H](CC[C@]4(C)[C@@H]3C=CC3=C5CC(C)(C)CC[C@]5(CO)[C@H](O)C[C@]34C)[C@]2(C)CO)[C@H](O)[C@@H](O[C@@H]2O[C@H](CO)[C@@H](O)[C@H](O)[C@H]2O)[C@H]1O
quantity_measured: IC50
result: > 80 µM

compound: CO[C@H]1C=C2[C@H]3CC(C)(C)CC[C@@]3(CO)[C@H](O)C[C@]2(C)[C@@]2(C)CC[C@@H]3C(C)(C)[C@H](O[C@@H]4O[C@H](CO[C@H]5O[C@@H](CO)[C@H](O)[C@@H](O)[C@@H]5O)[C@@H](O[C@@H]5O[C@@H](C)[C@H](O)[C@@H](O)[C@H]5O)[C@H](O)[C@H]4O)CC[C@@]3(C)[C@H]12
quantity_measured: IC50
result: 75.7 µM

compound: CC1(C)CC[C@@]2(CO)C(=C3C=C[C@@H]4[C@@]5(C)CCC(=O)[C@@](C)(CO)[C@@H]5CC[C@@]4(C)[C@]3(C)C[C@H]2O)C1
quantity_measured: IC50
result: > 80 µM

Value sought for every listed compound: IC50.
1. C[C@@H]1O[C@@H](O[C@H]2[C@H](O)[C@@H](O)[C@H](O[C@@H]3CC[C@]4(C)[C@H](CC[C@@]5(C)[C@H]4CC=C4[C@H]6CC(C)(C)CC[C@@]6(CO)[C@H](O)C[C@@]45C)C3(C)C)O[C@@H]2CO[C@H]2O[C@@H](CO)[C@H](O)[C@@H](O)[C@@H]2O)[C@H](O)[C@H](O)[C@H]1O
2. CC1(C)CC[C@]23CO[C@@]4(C=C[C@@H]5[C@@]6(C)CC[C@H](O)[C@@](C)(CO)[C@@H]6CC[C@@]5(C)[C@]4(C)C[C@@H]2O)[C@@H]3C1
3. C[C@H]1O[C@@H](O[C@H]2CC[C@@]3(C)[C@@H](CC[C@]4(C)[C@@H]3[C@H](O)C=C3[C@@H]5CC(C)(C)CC[C@]5(CO)[C@@H](O)C[C@]34C)[C@]2(C)CO)[C@H](O)[C@@H](O[C@@H]2O[C@H](CO)[C@@H](O)[C@H](O)[C@H]2O)[C@H]1O

1: 37.8 µM; 2: > 80 µM; 3: > 80 µM
